Tested on: human PKK mRNA
ASSAY_COMMENT: Antisense inhibition of human PKK mRNA in HepaRG cells, 1,000 nM, MOE/deoxy/cEt oligonucleotides (Example 3)
Format: cell-based
ASSAY_CONTEXT: Table 20; HepaRG cells, electroporation with 1,000 nM antisense oligonucleotide, approximately 24 hours; PKK mRNA by RT-PCR (RTS3454), relative to untreated control cells
Strand notation (5' to 3'): a small letter for the sugar, then the base; units joined by * are phosphorothioate-linked, units joined directly phosphodiester-linked; [ ] holds rarer units or linkages, { } end groups; capitals alone tell only the bases. e = 2'-O-(2-methoxyethyl) (MOE); k = constrained ethyl (cEt); [5mC] = 5-methylcytosine; d = 2'-deoxy (DNA)
EXPERIMENTAL_ENDPOINT: % inhibition (%)
Quick reminder: number only, in %, skip the unit.

>  <SUBSTANCE>
547862 (antisense eG*eA*k[5mC]*dT*d[5mC]*d[5mC]*dT*d[5mC]*dT*d[5mC]*dA*dT*dA*kT*k[5mC]*eA) [compound 547862]

>  <EXPERIMENTAL_ENDPOINT>
% inhibition

>  <UNIT_SYMBOL>
%

>  <RESULT_NUMBER>
22

$$$$
>  <SUBSTANCE>
547913 (eG*e[5mC]*kA*dA*d[5mC]*dA*dT*d[5mC]*d[5mC]*dA*d[5mC]*dA*dT*k[5mC]*kT*eG; antisense) [compound 547913]

>  <EXPERIMENTAL_ENDPOINT>
% inhibition

>  <UNIT_SYMBOL>
%

>  <RESULT_NUMBER>
71

$$$$

Let us examine a further case.
State, in one line, measured % inhibition of 547890 (eT*eT*kG*dT*dT*d[5mC]*d[5mC]*dG*dG*dT*dA*d[5mC]*dT*k[5mC]*kT*eG; antisense) [compound 547890]
97

---

Parameter % inhibition: see the listing below.
Test system: human PKK mRNA
ASSAY_COMMENT: Antisense inhibition of human PKK mRNA in HepaRG cells, 1,000 nM, MOE/deoxy/cEt oligonucleotides (Example 3)
Assay type: cell-based
ASSAY_CONTEXT: Table 21 experiment; HepaRG cells, electroporation with 1,000 nM antisense oligonucleotide, approx. 24 hours; PKK mRNA by RT-PCR (RTS3454), relative to untreated control cells
Strand notation (5' to 3'): a small letter for the sugar, then the base; units joined by * are phosphorothioate-linked, units joined directly phosphodiester-linked; [ ] holds rarer units or linkages, { } end groups; capitals alone tell only the bases. e = 2'-O-(2-methoxyethyl) (MOE); k = constrained ethyl (cEt); [5mC] = 5-methylcytosine; d = 2'-deoxy (DNA)

>  <SUBSTANCE>
547773 (antisense eT*e[5mC]*kT*dT*dG*dG*dA*dG*dG*dT*dG*dA*dG*kT*k[5mC]*eT) [compound 547773]

>  <% inhibition>
47%

$$$$
>  <SUBSTANCE>
547828 (e[5mC]*e[5mC]*kT*dG*dT*dT*d[5mC]*dG*dA*dT*dG*dT*dA*k[5mC]*kT*eT; antisense) [compound 547828]

>  <% inhibition>
63%

$$$$
>  <SUBSTANCE>
547823 (eA*eG*k[5mC]*dA*dA*d[5mC]*d[5mC]*dA*dA*dA*d[5mC]*d[5mC]*dT*kT*kT*eT; antisense) [compound 547823]

>  <% inhibition>
51%

$$$$
>  <SUBSTANCE>
547777 (antisense eT*eT*kG*d[5mC]*dT*dT*d[5mC]*dT*dT*dG*dG*dA*dG*kG*kT*eG) [compound 547777]

>  <% inhibition>
69%

$$$$

State, in one line, measured % inhibition of 547788 (antisense eT*eA*kA*dG*dT*dT*dG*d[5mC]*dT*dT*dG*d[5mC]*dT*kT*kG*eA) [compound 547788]
49%

State, in one line, measured % inhibition of 547836 (eT*e[5mC]*k[5mC]*dA*dG*dA*dA*dA*d[5mC]*dT*dG*d[5mC]*dA*k[5mC]*k[5mC]*eT; antisense) [compound 547836]
50%

State, in one line, measured % inhibition of 547799 (eG*eA*kA*dG*d[5mC]*dT*dA*d[5mC]*dA*dT*d[5mC]*d[5mC]*d[5mC]*k[5mC]*kA*e[5mC]; antisense) [compound 547799]
41%

State, in one line, measured % inhibition of 547807 (eG*e[5mC]*kA*dG*dT*dA*dT*dT*dG*dG*dG*d[5mC]*dA*kT*kT*eT; antisense) [compound 547807]
75%

State, in one line, measured % inhibition of 547819 (e[5mC]*eA*kT*dT*dG*dA*dT*dT*dG*dA*dA*d[5mC]*dT*kT*kG*e[5mC]; antisense) [compound 547819]
11%
